# Target entity: Kras and SOS1 (biotin-tagged human Kras loaded with GDP, His-tagged human SOS1) (Homo sapiens, UniProt P01116, G12D)
# Construct: made in house; host or cells: E. coli (stated for Kras only)
# Sequence (P01116 1-188 isoform P01116-2 G12D): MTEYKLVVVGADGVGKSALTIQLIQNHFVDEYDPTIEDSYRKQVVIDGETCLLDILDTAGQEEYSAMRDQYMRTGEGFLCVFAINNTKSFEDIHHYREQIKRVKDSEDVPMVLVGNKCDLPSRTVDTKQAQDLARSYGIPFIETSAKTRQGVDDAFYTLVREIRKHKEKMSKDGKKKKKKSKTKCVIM
# Assay protocol: Protein-protein interaction inhibition between Kras and SOS1 (KrasGl2D-SOS PPI) using AlphaScreen
# Assay type: binding
# Run conditions: AlphaScreen; biotin-tagged human Kras loaded with GDP, His-tagged human SOS1; read-out: KRAS G12D-SOS PPI IC50
# Protocol: Protein-Protein Interaction Inhibition Between Kras and SOS1 (KrasGl2D-SOS PPI) Using AlphaScreen Protein-protein interaction inhibition (PPI) between Kras and SOS1 was measured by energy transfer from nickel-conjugated donor beads to streptavidin-conjugated acceptor beads using biotin-tagged human Kras expressed in E. coli and loaded with GDP after purification and His-tagged human SOS1 enzyme. […]
Positions of bridges follow the written chain, without caps; N, C: chain ends. Non-standard residues stand in square brackets, D forms with d. Residues, ends and D or L forms follow the SMILES beside them. *: point of attachment. hPhe(3-Cl-4-CF3) = N[C@@H](CCc1ccc(C(F)(F)F)c(Cl)c1)C(=O)O; NMeCha = CN[C@@H](CC1CCCCC1)C(=O)O; Azetidine(3,3-F2) = FC1(F)CN(*)C1; NMeD = CN[C@@H](CC(=O)O)C(=O)O; NMeV = CN[C@H](C(=O)O)C(C)C; NMeA = CN[C@@H](C)C(=O)O; Piperidide = C1CCN(*)CC1; Sar = CNCC(=O)O
Measured endpoint: IC50 (µM)

{"Compound": "CC[C@H](C)[C@@H]1NC(=O)[C@H](C)N(C)C(=O)C[C@@H](C(=O)N2CCCCC2)N(C)C(=O)[C@H](C(C)C)N(C)C(=O)[C@H](COC)NC(=O)[C@H](CC(=O)N2CC(F)(F)C2)N(C)C(=O)[C@H](CCc2ccc(C(F)(F)F)c(Cl)c2)NC(=O)CN(C)C(=O)[C@H](CC2CCCCC2)N(C)C(=O)CN(C)C(=O)CN(C)C1=O [Compound 793] ([NMeA]I[Sar][Sar][NMeCha][Sar][hPhe(3-Cl-4-CF3)][NMeD](Azetidine(3,3-F2))S(Me)[NMeV][NMeD]-Piperidide; lactam N-11)", "Quantitative readout": 0.024}
